Test: NCI Yeast Anticancer Drug Screen. Data for the wt2 strain (AID 169);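 also: 0% = growth of vehicle-treated yeast cultures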
Settings: S. cerevisiae wt2 strain growth inhibition; at 1.2 µM; hits give high values
The panel holds about 79,000 compounds, 15% with a hit somewhere; the sample as a whole holds those more often.
measurement-label: growth inhibition (%)
API: value field is a number in %; no unit string.

Answered examples (8):
## Task Look at this molecule and give its reported growth inhibition. "COc1ccc2c(Cc3c4ccccc4cc4ccccc34)cncc2c1O"
## Result 1

## Task Look at this molecule and give its reported growth inhibition. "O=C(O)CN(CCNC(=O)OCC1c2ccccc2-c2ccccc21)CCNC(=O)OCC1c2ccccc2-c2ccccc21"
## Result -3

## Task Look at this molecule and give its reported growth inhibition. "O=C(CCC(=O)c1ccc(O)cc1)Oc1ccc(O)cc1"
## Result -1

## Task Look at this molecule and give its reported growth inhibition. "Cc1ccc(N(C=O)c2c([N+](=O)[O-])cc([N+](=O)[O-])c3c2=[N+]([O-])CN=3)cc1"
## Result 9

## Task Look at this molecule and give its reported growth inhibition. "Cc1ccc(Cl)c2c(=O)c3ccccc3[nH]c12"
## Result 0

## Task Look at this molecule and give its reported growth inhibition. "CN(Cc1cccc2ccccc12)Cc1cccc2ccccc12"
## Result -2

## Task Look at this molecule and give its reported growth inhibition. "COc1ccc(/C=C2\S/C(=N/Nc3nc(-c4ccccc4)cs3)NC2=O)cc1OC"
## Result 22

## Task Look at this molecule and give its reported growth inhibition. "CCOC(=O)/C(O)=C(/C=N/C(=S)Nc1c(CC)cccc1CC)C(=O)OCC"
## Result -7

More entries:
## Task Look at this molecule and give its reported growth inhibition. "CCOC(=O)/C=C1\CCCn2c1ncc(C(=O)OCC)c2=O"
## Result 1

## Task Look at this molecule and give its reported growth inhibition. "COc1ccc2nc3cccc([N+](=O)[O-])c3c(NCCCO)c2c1"
## Result 6

## Task Look at this molecule and give its reported growth inhibition. Cc1nc2ccc(Br)cc2c(=O)n1-c1ccc(NC2OCC(O)C(O)C2O)cc1 (centres undefined)
## Result 1

## Task Look at this molecule and give its reported growth inhibition. "CCN(CC)c1cccc(Nc2nc3ccccc3s2)c1"
## Result -1

## Task Look at this molecule and give its reported growth inhibition. "CCOc1ccc2ccc3cccnc3c2n1"
## Result 0

## Task Look at this molecule and give its reported growth inhibition. CC(C)c1ccc(C2NC(=S)NC3=C2c2ccccc2C3=O)cc1 (centres undefined)
## Result 0

## Task Look at this molecule and give its reported growth inhibition. "O=C(/C(=C/c1ccccc1)CBr)c1ccccc1"
## Result 4

## Task Look at this molecule and give its reported growth inhibition. "O=c1oc(C(C(F)(F)F)C(F)(F)F)nc2ccccc12"
## Result -3

## Task Look at this molecule and give its reported growth inhibition. "Oc1ccc(Cc2nccc3cc(O)c(O)cc23)cc1O"
## Result -9

====

Assay: NCI Yeast Anticancer Drug Screen. Data for the CLN2oe strain (AID 163);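 also: 0% = growth of vehicle-only control cultures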
Conditions: S. cerevisiae CLN2oe strain, at 11.0 µM
About 79,000 compounds went through this panel and 15% of them were active in at least one assay; those are over-represented in the sample as a whole. Activity calls are given as the source filed them. No stated cut-off is given here; in the data, active means growth inhibition above about 70%; inactive means the rest.
Could you please pick one outcome from this set? yes (1) for active, no (0) for inactive

## Task Dear all, I need the recorded test outcome for Cc1nc2ccc(Br)cc2c(=O)n1-c1ccc(NC2OCC(O)C(O)C2O)cc1 (configuration not stated) , thank you.
## Result no (0)

## Task Dear all, I need the recorded test outcome for "COc1ccc2c(C)cc(N/N=C/c3sccc3C)nc2c1" , thank you.
## Result no (0)

## Task Dear all, I need the recorded test outcome for "Nc1ccc2cc(Br)c3ccccc3c2c1" , thank you.
## Result no (0)

More entries:
## Task Dear all, I need the recorded test outcome for "CNC(=O)OCc1c(COC(=O)NC)c(C)n(-c2ccc(Cl)c(Cl)c2)c1C" , thank you.
## Result no (0)
